B1: tRNA (parent)
chain: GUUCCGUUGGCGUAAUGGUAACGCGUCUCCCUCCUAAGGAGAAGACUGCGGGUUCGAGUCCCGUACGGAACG

# Variants of: B1
# experiment-notes: yeast fitness relative to wild type (ratio to wild type); higher = fitter; tRNA-Arg(CCU), competitive growth, 37 C, YPD
Variants at the floor of the assay were thinned out.
Each entry below carries its reported yeast fitness.

- variant-descriptor: "C24A C30U A45G A57U"
  yeast fitness: 0.6
- variant-descriptor: "A20U U32A A65C"
  yeast fitness: "≤ 0.5"
- variant-descriptor: "G9C A40U A70U"
  yeast fitness: "≤ 0.5"
